molecular target: human TGFßRII (antigen of the Octet experiments) (human, UniProt P37173 23-166); test: BLI (Octet)
Sequence (P37173 23-166): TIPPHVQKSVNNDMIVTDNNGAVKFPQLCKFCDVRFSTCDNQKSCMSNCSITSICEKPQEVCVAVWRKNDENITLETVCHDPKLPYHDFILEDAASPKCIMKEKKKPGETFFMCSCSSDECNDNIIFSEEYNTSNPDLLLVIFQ
measure: Kd (nM)

- binder: "H1.55 L1 XENP34511 (antibody, V domains shown) VH: QLQVQESGPGLVKPSETLSLTCTVSGGSISNSYFSWGWIRQPPGKGLEWIGSFYYSEKTYYNPSLKSRATISIDTSKSQFSLKLSSVTAADTAVYYCPRGPTMIRGVIDSWGQGTLVTVSS VL: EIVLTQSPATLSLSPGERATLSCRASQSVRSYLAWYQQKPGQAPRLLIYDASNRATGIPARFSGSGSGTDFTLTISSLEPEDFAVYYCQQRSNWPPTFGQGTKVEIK"
  measure: "Kd"
  reading: 0.348
- binder: "H1.74 L1 XENP34530 (antibody, V domains shown) VH: QLQVQESGPGLVKPSETLSLTCTVSGGSISNSYFSWGWIRQPPGKGLEWIGSFYYGEKTYYNPSLKSRATISIDTSKNQFSLKLSSVTAADTAVYYCPRGPTMIRGVIDSWGQGTLVTVSS VL: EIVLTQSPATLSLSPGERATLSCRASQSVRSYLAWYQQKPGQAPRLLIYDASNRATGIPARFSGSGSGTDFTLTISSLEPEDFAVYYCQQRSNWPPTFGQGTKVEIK"
  measure: "Kd"
  reading: 0.771
- binder: "H1.71 L1 XENP34527 (antibody, V domains shown) VH: QLQVQESGPGLVKPSETLSLTCTVSGGSISNSYFSWGWIRQPPGKGLEWIGSFYYGEKTYYNPSLKSRFTISIDTSKSQFSLKLSSVTAADTAVYYCPRGPTMIRGVIDSWGQGTLVTVSS VL: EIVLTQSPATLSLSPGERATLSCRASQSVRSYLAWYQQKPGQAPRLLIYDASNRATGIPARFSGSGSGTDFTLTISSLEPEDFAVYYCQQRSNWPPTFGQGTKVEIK"
  measure: "Kd"
  reading: 0.588
- binder: "H1.58 L1 XENP34514 (antibody, V domains shown) VH: QLQVQESGPGLVKPSETLSLTCTVSGGSISNSYFSWGWIRQPPGKGLEWIGSFYYGEDTYYNPSLKSRATISIDTSKSQFSLKLSSVTAADTAVYYCPRGPTMIRGVIDSWGQGTLVTVSS VL: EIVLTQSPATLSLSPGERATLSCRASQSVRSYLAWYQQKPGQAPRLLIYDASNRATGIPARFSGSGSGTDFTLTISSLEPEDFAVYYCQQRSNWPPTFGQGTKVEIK"
  measure: "Kd"
  reading: 2.49
